# Tested on: SK-MEL-28
# assay-method-text: NCI tumour cell line growth inhibition, 48 h
Active and inactive are the calls of the source. Cut-off read from the data, not from the text of the source: active = GI50 up to about 1.1 µM and inactive = higher.
measured-attribute: GI50

INPUT: Query for SK-MEL-28: what GI50 does the record show for CC(C)(C)OC(=O)NC(CSSCC(NC(=O)OC(C)(C)C)C(=O)O)C(=O)O (stereo not given) ?
OUTPUT: > 100 µM (inactive)

INPUT: Query for SK-MEL-28: what GI50 does the record show for COc1ccc(/C=C2/SC(c3ccccc3)N(NC(=O)CCCCCCCCC(=O)NN3C(=O)/C(=C\c4ccc(OC)c(OC)c4)SC3c3ccccc3)C2=O)cc1OC (stereo not given) ?
OUTPUT: 48 µM (inactive)

INPUT: Query for SK-MEL-28: what GI50 does the record show for O=c1[nH]nc(Cc2ccc(Cl)cc2)n1/N=C/c1cccs1 ?
OUTPUT: > 100 µM (inactive)

INPUT: Query for SK-MEL-28: what GI50 does the record show for CCCCCCCCCCCCN1[C@H]2CCC[C@H]2C(O)[C@@H]2CCC[C@@H]21 (stereo not given in full) ?
OUTPUT: > 100 µM (inactive)

INPUT: Query for SK-MEL-28: what GI50 does the record show for CC1CCCC(C(O)CC2CC(=O)N(c3ccccc3)C(=O)C2)C1=O (stereo not given) ?
OUTPUT: > 100 µM (inactive)

INPUT: Query for SK-MEL-28: what GI50 does the record show for N#CCCN(CCC#N)c1ccc(/C=C2\N=C(c3ccccc3)N(c3ccc(F)cc3)C2=O)cc1 ?
OUTPUT: > 100 µM (inactive)

INPUT: Query for SK-MEL-28: what GI50 does the record show for O=c1sc(Nc2ccc3ccccc3c2Cl)nc2ccccc12 ?
OUTPUT: > 100 µM (inactive)

INPUT: Query for SK-MEL-28: what GI50 does the record show for CCCCCCCCCCCC(=O)C1=C(O)CCC(O)C1=O (stereo not given) ?
OUTPUT: 16.1 µM (inactive)

INPUT: Query for SK-MEL-28: what GI50 does the record show for Cc1ccc2nc(NC(=O)/C(Cc3nc4ccc(Cl)cc4nc3O)=N\NC(C)(C)C)sc2c1 ?
OUTPUT: > 100 µM (inactive)

INPUT: Query for SK-MEL-28: what GI50 does the record show for Nc1cc(O)c2cc(/N=N/c3ccc(/N=N/c4ccc(/N=N/c5ccc6cc(S(=O)(=O)O)cc(S(=O)(=O)O)c6c5)c5ccccc45)c4cc(S(=O)(=O)O)ccc34)c(S(=O)(=O)O)cc2c1 ?
OUTPUT: > 100 µM (inactive)

INPUT: Query for SK-MEL-28: what GI50 does the record show for Cc1ccc(/C=C2\Cc3c(C)cc(C)cc3C2=O)c(C(=O)O)c1 ?
OUTPUT: 56.2 µM (inactive)

INPUT: Query for SK-MEL-28: what GI50 does the record show for CC1(O)CC2C(CC1SC1CC3C(CC1(C)O)C3(C)C)C2(C)C (stereo not given) ?
OUTPUT: > 100 µM (inactive)

INPUT: Query for SK-MEL-28: what GI50 does the record show for Cc1cc(C)c(S(=O)(=O)N(CCCCCCN)OCCCN)c(C)c1 ?
OUTPUT: 18.1 µM (inactive)

INPUT: Query for SK-MEL-28: what GI50 does the record show for COc1ccc(-c2cc(O)c3cc4c(cc3n2)OCO4)c(OC)c1 ?
OUTPUT: 32.9 µM (inactive)

INPUT: Query for SK-MEL-28: what GI50 does the record show for [N-]=[N+]=NC1(c2ccccc2)C(=O)c2cccc3c4ccccc4n(c23)C1=O (stereo not given) ?
OUTPUT: > 100 µM (inactive)
